- METHOD DESCRIPTION: acute food intake inhibition study, oral gavage, Sprague Dawley rats
- Format: in vivo
- SETUP CONDITIONS: rat, in vivo, oral; inferred from duration of food intake inhibition in Sprague Dawley rats
EXPERIMENTAL ENDPOINT: half-life (h)
Respond numerically; units are h and should not be typed.

Quick check: half-life of CC[N+](CC)(CC(=O)Nc1c(C)cccc1C)Cc1ccccc1.O=C([O-])c1ccccc1 ?
6
